abundance fitness for assorted variants
B1: Membrane-associated guanylate kinase, WW and PDZ domain-containing protein 1, residues 352 to 401; numbered along this chain, Q96QZ7 (parent)
chain: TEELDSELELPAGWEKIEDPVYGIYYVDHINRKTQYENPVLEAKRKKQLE

variants of: B1; assay: abundance fitness (aPCA) (normalised: wild type 0, dead -1); higher = more abundant; growth selection in yeast, the domain comes from the species named; details: Homo sapiens
Number, no unit, nothing else.

Reference set, count: 5
Request: abundance fitness lookup needed for N31G , thanks.
Response: 0.009

Request: abundance fitness lookup needed for H29W , thanks.
Response: -0.439

Request: abundance fitness lookup needed for E9I , thanks.
Response: -0.312

Request: abundance fitness lookup needed for D19H , thanks.
Response: -0.114

Request: abundance fitness lookup needed for E2K , thanks.
Response: -0.214

---
Request: abundance fitness lookup needed for E9Q , thanks.
Response: -0.137

Request: abundance fitness lookup needed for E7M , thanks.
Response: -0.046

Request: abundance fitness lookup needed for T34F , thanks.
Response: -0.387

Request: abundance fitness lookup needed for V21M , thanks.
Response: -0.517

Request: abundance fitness lookup needed for Y26F , thanks.
Response: -0.137

Request: abundance fitness lookup needed for K44G , thanks.
Response: -0.068
